Tested on: HOP-62 NSCLC
TEST_DETAILS: NCI tumour cell line growth inhibition, 48 h
MEASUREMENT_NAME: TGI

Dear colleague, I am looking for the recorded TGI of the following compound: O=C(N/N=C/c1cc(Cl)cc(Cl)c1[O-])c1ccccc1O.O=C(N/N=C/c1cc(Cl)cc(Cl)c1[O-])c1ccccc1O.[Cl-].[Fe+3]
36.2 µM

Dear colleague, I am looking for the recorded TGI of the following compound: NCCc1ccc2oc3cc(=O)c4ccccc4c-3nc2c1
10.3 µM

Dear colleague, I am looking for the recorded TGI of the following compound: CCCNC(=S)N=Nc1c(O)[nH]c2ccccc12
> 100 µM

Dear colleague, I am looking for the recorded TGI of the following compound: Cc1cc(O)c(/C=N/c2nc(-c3ccc([N+](=O)[O-])cc3)cs2)c(=O)o1
> 100 µM

Dear colleague, I am looking for the recorded TGI of the following compound: CN1CCN(CC(=O)N2c3ccccc3Sc3cc4ccccc4cc32)CC1
33 µM

###

System: HOP-92 NSCLC
TEST_DETAILS: NCI tumour cell line growth inhibition, 48 h
Label rule, in plain words: TGI of 20 µM and up is Met, under 20 µM is Not met.

Quick check, TGI >= 20 µM? O=c1ccc2nc(C(F)(F)F)nn(-c3ccccc3)c-2c1
Not met

Quick check, TGI >= 20 µM? COc1ccc2c(c1)NC(=O)CN2c1nc(NC2CC2)nc2ccccc12
Not met

Quick check, TGI >= 20 µM? S=C1N=C2C(=N1)n1c3c(c4ccccc41)CCCC23 (configuration not stated)
Met

Quick check, TGI >= 20 µM? CSC(=NC#N)S/C=C/C(=O)c1ccc(Cl)cc1
Met

Quick check, TGI >= 20 µM? CCOC(=O)C(NC(=O)CC)(Nc1ccccc1OC)C(F)(F)F (configuration not stated)
Met

Quick check, TGI >= 20 µM? NCCc1ccc2oc3cc(=O)c4ccccc4c-3nc2c1
Met

Quick check, TGI >= 20 µM? COC(=O)C1=C(C(=O)OC)C2(CCCCCC2=O)OC1=O (configuration not stated)
Met

Quick check, TGI >= 20 µM? Nc1nc(N)c2c(Cl)c(CNc3ccc(C(=O)NC(CC(=O)O)C(=O)O)cc3)ccc2n1 (configuration not stated)
Met

Quick check, TGI >= 20 µM? C=C1CCc2ccccc2C1=O
Met

Quick check, TGI >= 20 µM? CCOC(=O)c1cn2c(n1)sc1cc(C)c(C)cc12
Met

Quick check, TGI >= 20 µM? CN1CCN(CC(=O)N2c3ccccc3Sc3cc4ccccc4cc32)CC1
Met

###

Test system: HCC-2998 colon
TEST_DETAILS: NCI tumour cell line growth inhibition, 48 h
For each entry below, report its TGI value.
Entry rule: numbers only, all in µM.

Dear colleague, I am looking for the recorded TGI of the following compound: O=C(/C=C/c1ccc(Br)cc1)c1ccc(NCc2nc3ccccc3[nH]2)cc1
88.5

Dear colleague, I am looking for the recorded TGI of the following compound: CC(C)(C)c1cc(OCc2nnc3sc(-c4ccc(Cl)cc4)nn23)c(Cl)cc1OCc1nnc2sc(-c3ccc(Cl)cc3)nn12
9.72

Dear colleague, I am looking for the recorded TGI of the following compound: CN(C)CCCn1c2c(c3ccc(-c4ccn[nH]4)cc3c1=O)C(=O)c1ccccc1-2
24

Dear colleague, I am looking for the recorded TGI of the following compound: CCCN(CCC)c1ccc(CO)c(Cl)c1
48.2

###

For each entry below, report its GI50 value.
Tested on: HCT-15 colon
TEST_DETAILS: NCI tumour cell line growth inhibition, 48 h

# query: GI50 | item C[C@]12CCC(=O)CC1CC[C@@H]1C2CC[C@@]2(C)C1CC[C@@H]2OC(=O)CC[Se][Se]CCC(=O)O[C@H]1CCC2[C@@H]3CCC4CC(=O)CC[C@]4(C)C3CC[C@@]21C (some centres undefined) | system: HCT-15 colon
3.64 µM

# query: GI50 | item Cc1nn(CCO)c(C)c1N=[N+]([O-])c1c(C)nn(CCO)c1C | system: HCT-15 colon
2.4 µM

# query: GI50 | item O=C(CCCCN1CCOCC1)Nc1ccc(Cn2nnc3c2C(=O)c2nnn(Cc4ccc(NC(=O)CCCCN5CCOCC5)cc4)c2C3=O)cc1 | system: HCT-15 colon
0.629 µM

# query: GI50 | item Oc1cccc(-c2nc(-c3n[nH]c(=S)n3-c3ccccc3)cc3c2[nH]c2ccccc23)c1 | system: HCT-15 colon
2.88 µM

###

For each entry below, report its TGI value.
Tested on: SK-OV-3 ovarian
TEST_DETAILS: NCI tumour cell line growth inhibition, 48 h
Entry rule: numbers only, all in µM.

Dear colleague, I am looking for the recorded TGI of the following compound: Cn1ncc2c(Nc3ccc(Cl)cc3)c3ccccc3nc21
54.9

Dear colleague, I am looking for the recorded TGI of the following compound: Cc1cc(Cc2cc(Cc3cc(C)cc(C(C)(C)C)c3O)c(C)cc2C)c(O)c(C(C)(C)C)c1
35.6

Dear colleague, I am looking for the recorded TGI of the following compound: COc1ccc(Nc2nc3c(N)cc(C(F)(F)F)cc3nc2-c2ccccc2)cc1OC
28.6

Dear colleague, I am looking for the recorded TGI of the following compound: c1ccc2c3ccn4ccc5c6ccccc6[nH]c5c4c-3nc2c1
3.02

Dear colleague, I am looking for the recorded TGI of the following compound: c1ccc([Si](OCCN2CC2)(c2ccccc2)c2ccccc2)cc1
27.5

Dear colleague, I am looking for the recorded TGI of the following compound: O=C(Nc1ccc([As]=[As]c2ccc(NC(=O)c3ccccc3)cc2)cc1)c1ccccc1 (stereo not given)
3.31

Dear colleague, I am looking for the recorded TGI of the following compound: C/C(=N/OC(=O)c1cccc2c(=O)c3ccccc3[nH]c12)[C@H]1CC[C@H]2[C@@H]3CCC4=C/C(=N/OC(=O)c5cccc6c(=O)c7ccccc7[nH]c56)CC[C@]4(C)[C@H]3CC[C@]12C
93.2

Dear colleague, I am looking for the recorded TGI of the following compound: C[C@]12CCC(=O)CC1CC[C@@H]1C2CC[C@@]2(C)C1CC[C@@H]2OC(=O)CC[Se][Se]CCC(=O)O[C@H]1CCC2[C@@H]3CCC4CC(=O)CC[C@]4(C)C3CC[C@@]21C (stereo not given in full)
17.4

###

Test system: K-562 leukemia
TEST_DETAILS: NCI tumour cell line growth inhibition, 48 h
MEASUREMENT_NAME: TGI

Dear colleague, I am looking for the recorded TGI of the following molecule: COc1ccc(Oc2ccc3cc4c(cc3c2O)OCO4)c2cc(C)oc12
81.4 µM

Dear colleague, I am looking for the recorded TGI of the following molecule: COC(=O)C1=C(C)C(=O)[C@H]2C(C(=O)OC)CCCC[C@@H]12 (some centres undefined)
> 100 µM

Dear colleague, I am looking for the recorded TGI of the following molecule: CC1=NN(C(=O)c2ccc(Cl)cc2)C(=O)C1N=Nc1ccc(S(=O)(=O)Nc2ncccn2)cc1 (centres undefined)
> 100 µM

Dear colleague, I am looking for the recorded TGI of the following molecule: NS(=O)(=O)c1nnc(NS(=O)(=O)c2ccc(F)cc2)s1
> 100 µM

Dear colleague, I am looking for the recorded TGI of the following molecule: O=[N+]([O-])c1ccc2c(c1)C(=NO)c1cc([N+](=O)[O-])ccc1-2
> 100 µM

Dear colleague, I am looking for the recorded TGI of the following molecule: C[C@]12CCC(=O)CC1CC[C@@H]1C2CC[C@@]2(C)C1CC[C@@H]2OC(=O)CC[Se][Se]CCC(=O)O[C@H]1CCC2[C@@H]3CCC4CC(=O)CC[C@]4(C)C3CC[C@@]21C (some centres undefined)
> 100 µM

Dear colleague, I am looking for the recorded TGI of the following molecule: O=c1c2ccc(Cl)cc2oc2c(CNc3ccc(S(=O)(=O)Nc4nccs4)cc3)cccc12
> 100 µM

Dear colleague, I am looking for the recorded TGI of the following molecule: O=c1ccc2nc(C(F)(F)F)nn(-c3ccccc3)c-2c1
9.14 µM

Dear colleague, I am looking for the recorded TGI of the following molecule: O=C(/C=C/c1ccc(Br)cc1)c1ccc(NCc2nc3ccccc3[nH]2)cc1
> 37.3 µM

###

For each entry below, report its TGI value.
Test system: SR leukemia
TEST_DETAILS: NCI tumour cell line growth inhibition, 48 h

Dear colleague, I am looking for the recorded TGI of the following molecule: Cc1cc(O)c(C=O)c(C)c1CCC1(C)C=Cc2cc(O)ccc2O1 (stereo not given)
> 100 µM

Dear colleague, I am looking for the recorded TGI of the following molecule: CCOC(=O)c1cn2c(n1)sc1cc(C)c(C)cc12
> 100 µM

Dear colleague, I am looking for the recorded TGI of the following molecule: CC(C)(C)c1cc(OCc2nnc3sc(-c4ccc(Cl)cc4)nn23)c(Cl)cc1OCc1nnc2sc(-c3ccc(Cl)cc3)nn12
2.91 µM

Dear colleague, I am looking for the recorded TGI of the following molecule: COC(=O)C(Cc1ccc2c(c1)CCCC2)Cc1cc2c(cc1C(O)OC)CCC2 (stereo not given)
> 100 µM

Dear colleague, I am looking for the recorded TGI of the following molecule: O=C(Nc1ccc(Cl)c(Cl)c1)C(=O)C(C(=O)c1ccccc1F)C1OC(=O)c2ccccc21 (stereo not given)
> 100 µM
